Every entry's value here was drawn from ChEMBL document CHEMBL5442219.

Target: Histamine H3 receptor (Homo sapiens)
Conditions: Compound concentration 10 µM; call rule not given here
Classes used: class 1 (active), class 0 (inactive)

>  <Compound>
CN1CCCC(n2nc(Cc3ccc(Cl)cc3)c3ccccc3c2=O)CC1 (stereo not given)

>  <Label>
class 0

$$$$
>  <Compound>
CN1C2CCC1CC(OC(c1ccc(F)cc1)c1ccc(F)cc1)C2 (stereo not given)

>  <Label>
class 0

$$$$
>  <Compound>
O=C1O[C@]2(CC[C@H](C(=O)Nc3ccn(-c4ccccc4F)n3)CC2)c2cnccc21

>  <Label>
class 0

$$$$
>  <Compound>
O=C1N/C(=N/c2ccccc2F)S/C1=C\c1ccc(C(=O)O)cc1

>  <Label>
class 0

$$$$
>  <Compound>
CC(C)(C)NC[C@H](O)COc1nsnc1N1CCOCC1

>  <Label>
class 0

$$$$
>  <Compound>
C[C@]1(C(=O)N(CCCC(=O)O)Cc2cccc(Cl)c2)CCN1C(=O)c1csc2ccccc12

>  <Label>
class 0

$$$$
>  <Compound>
N=C(N)SCCc1c[nH]cn1

>  <Label>
class 1

$$$$
>  <Compound>
O=C(O)CC1CCC2(CC1)CCN(c1cc(OC(F)(F)F)ccc1Cl)CC2

>  <Label>
class 0

$$$$
>  <Compound>
CCN(CC)CCCCC1CCN(CC(=O)N2c3ccccc3C(=O)Nc3cccnc32)CC1

>  <Label>
class 0

$$$$
>  <Compound>
O=c1ccn([C@@H]2O[C@H](COP(=O)(O)OP(=O)(O)O)[C@@H](O)[C@H]2O)c(=O)[nH]1

>  <Label>
class 0

$$$$

====

Molecular target: 5-hydroxytryptamine receptor 1B (Homo sapiens) (UniProt P28222)
Sequence (P28222 whole entry): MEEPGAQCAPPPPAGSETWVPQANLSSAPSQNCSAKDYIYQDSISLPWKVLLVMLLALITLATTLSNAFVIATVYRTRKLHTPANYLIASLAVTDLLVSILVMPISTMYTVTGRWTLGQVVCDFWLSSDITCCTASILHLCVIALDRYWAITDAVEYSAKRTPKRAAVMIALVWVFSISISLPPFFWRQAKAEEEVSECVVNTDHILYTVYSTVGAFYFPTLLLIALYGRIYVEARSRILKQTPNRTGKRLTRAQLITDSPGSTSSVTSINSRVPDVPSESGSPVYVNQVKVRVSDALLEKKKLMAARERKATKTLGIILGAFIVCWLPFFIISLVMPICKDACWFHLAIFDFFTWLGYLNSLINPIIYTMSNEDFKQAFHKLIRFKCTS
Conditions: Compound concentration 10 µM
Description: PDSP Primary Binding target: HTR1B - Compounds are tested at 10 uM concentration, plate are incubated at room temperature in the dark for 90 minutes. Reaction are stopped by vacuum filtration onto 0.3% polyethyleneimine soaked filter mats using Filtermate harvester. Scintilation cocktail is then melted onto microwave-dried filters on a hot plate and the radio activity is counted in Microbia counter.
Observable: inhibition (%)

>  <Molecule>
CCCCc1nc(Cl)c(CO)n1Cc1ccc(-c2ccccc2-c2nnn[nH]2)cc1

>  <Observable>
inhibition

>  <Unit of measurement>
%

>  <Measured value>
-3.17

$$$$
>  <Molecule>
COc1ccc(/C=C/CCCCOc2ccc(C(=O)c3cccc(C(=O)O)c3)cc2CCC(=O)O)cc1

>  <Observable>
inhibition

>  <Unit of measurement>
%

>  <Measured value>
29.9

$$$$
>  <Molecule>
Cc1csc2c(N[C@@H](C)CN3CCN(S(=O)(=O)c4ccc(Cl)c(Cl)c4)CC3)ncnc12

>  <Observable>
inhibition

>  <Unit of measurement>
%

>  <Measured value>
-1.11

$$$$
>  <Molecule>
CCC[C@H](Oc1cc(C)c(-n2cc(C(F)(F)F)cn2)c(C)c1)c1ccc(C(=O)NCCC(=O)O)cc1

>  <Observable>
inhibition

>  <Unit of measurement>
%

>  <Measured value>
12.2

$$$$
>  <Molecule>
CN1CCCC(n2nc(Cc3ccc(Cl)cc3)c3ccccc3c2=O)CC1 (stereo not given)

>  <Observable>
inhibition

>  <Unit of measurement>
%

>  <Measured value>
66.5

$$$$
>  <Molecule>
O=c1ccn([C@@H]2O[C@H](COP(=O)(O)OP(=O)(O)OP(=O)(O)O)[C@@H](O)[C@H]2O)c(=O)[nH]1

>  <Observable>
inhibition

>  <Unit of measurement>
%

>  <Measured value>
7.75

$$$$
>  <Molecule>
CCc1cc(C(C)=O)c(O)cc1OCCCCCC(C)(C)c1nn[nH]n1

>  <Observable>
inhibition

>  <Unit of measurement>
%

>  <Measured value>
14.7

$$$$
>  <Molecule>
CCc1nn2c(C)cc(C)nc2c1Cc1ccc(-c2nnc(C3CCNCC3)o2)cc1

>  <Observable>
inhibition

>  <Unit of measurement>
%

>  <Measured value>
16.6

$$$$
>  <Molecule>
COC(=O)[C@H]1[C@H]2C[C@H]3c4[nH]c5ccccc5c4CCN3C[C@H]2CC[C@@H]1O

>  <Observable>
inhibition

>  <Unit of measurement>
%

>  <Measured value>
98.4

$$$$
>  <Molecule>
CC(C)NCC(O)COc1ccc(CCOCC2CC2)cc1 (stereo not given)

>  <Observable>
inhibition

>  <Unit of measurement>
%

>  <Measured value>
10.4

$$$$
>  <Molecule>
Cc1cc([C@@H](C)Nc2cccc(-c3cc(C)c(C(=O)N[C@@H](C)C(=O)O)c(C)c3)c2)ccc1Cl

>  <Observable>
inhibition

>  <Unit of measurement>
%

>  <Measured value>
12.1

$$$$
>  <Molecule>
N=C(N)SCCc1c[nH]cn1

>  <Observable>
inhibition

>  <Unit of measurement>
%

>  <Measured value>
8.52

$$$$
>  <Molecule>
O=C(O)c1n[nH]c2c1C[C@H]1C[C@@H]21

>  <Observable>
inhibition

>  <Unit of measurement>
%

>  <Measured value>
13

$$$$
>  <Molecule>
Cc1nn(C)c(C)c1-c1cccc2c1CC[C@H](N(C)C)C2

>  <Observable>
inhibition

>  <Unit of measurement>
%

>  <Measured value>
91.5

$$$$
>  <Molecule>
COc1ccc(C2(O)OC(=O)C(c3ccc4c(c3)OCO4)=C2Cc2cc(OC)c(OC)c(OC)c2)cc1 (stereo not given)

>  <Observable>
inhibition

>  <Unit of measurement>
%

>  <Measured value>
2.7

$$$$
>  <Molecule>
Cc1nnn(-c2ccc(-c3ccc(C4(C(=O)O)CC4)cc3)cc2)c1NC(=O)O[C@H](C)c1ccccc1

>  <Observable>
inhibition

>  <Unit of measurement>
%

>  <Measured value>
-3.56

$$$$
>  <Molecule>
CC[C@@H]1CN2C(=O)N(C)c3nc(-c4ccccc4)[nH]c3C2=N1

>  <Observable>
inhibition

>  <Unit of measurement>
%

>  <Measured value>
6.19

$$$$
>  <Molecule>
Cc1cccc([C@H](C)c2c[nH]cn2)c1C

>  <Observable>
inhibition

>  <Unit of measurement>
%

>  <Measured value>
31.3

$$$$
>  <Molecule>
N#Cc1ccc2[nH]cc(CCCCN3CCN(c4ccc5oc(C(N)=O)cc5c4)CC3)c2c1

>  <Observable>
inhibition

>  <Unit of measurement>
%

>  <Measured value>
56.1

$$$$
>  <Molecule>
OC[C@H]1O[C@@H](n2cnc3c(NC4CCCC4)ncnc32)[C@H](O)[C@@H]1O

>  <Observable>
inhibition

>  <Unit of measurement>
%

>  <Measured value>
15.9

$$$$

====

Target: 5-hydroxytryptamine receptor 7 (Homo sapiens) (UniProt P34969)
Sequence (P34969 whole entry): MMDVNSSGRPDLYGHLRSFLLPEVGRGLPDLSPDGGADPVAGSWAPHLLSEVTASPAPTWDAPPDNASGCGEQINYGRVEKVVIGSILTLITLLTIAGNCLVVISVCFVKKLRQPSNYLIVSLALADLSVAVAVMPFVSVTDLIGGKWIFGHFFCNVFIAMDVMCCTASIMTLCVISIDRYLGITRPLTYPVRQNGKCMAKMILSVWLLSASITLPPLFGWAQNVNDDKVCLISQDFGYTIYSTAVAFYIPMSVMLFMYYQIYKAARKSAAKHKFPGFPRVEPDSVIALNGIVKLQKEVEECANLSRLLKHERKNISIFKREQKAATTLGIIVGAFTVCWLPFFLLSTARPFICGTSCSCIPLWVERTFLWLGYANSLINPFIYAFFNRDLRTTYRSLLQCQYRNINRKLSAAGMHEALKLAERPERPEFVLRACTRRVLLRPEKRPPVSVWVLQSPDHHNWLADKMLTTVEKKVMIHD
Settings: Compound concentration 10 µM
Description: PDSP Primary Binding target: HTR7 - Compounds are tested at 10 uM concentration, plate are incubated at room temperature in the dark for 90 minutes. Reaction are stopped by vacuum filtration onto 0.3% polyethyleneimine soaked filter mats using Filtermate harvester. Scintilation cocktail is then melted onto microwave-dried filters on a hot plate and the radio activity is counted in Microbia counter.
Class definitions on inhibition: group 1 (below 20%), group 2 (20% to below 50%), group 3 (50% or more)

>  <Compound>
NCCc1c[nH]c2ccc(C(N)=O)cc12

>  <Label>
group 3

$$$$
>  <Compound>
CC(C)[C@H](CO)Nc1nc(Nc2cccc(Cl)c2)c2ncn(C(C)C)c2n1

>  <Label>
group 1

$$$$
>  <Compound>
O=C(O)C1CN(Cc2ccc(OCc3ccc(Cl)c(Cl)c3)cc2)C1

>  <Label>
group 1

$$$$
>  <Compound>
CN[C@@H]1CCc2[nH]c3ccc(C(N)=O)cc3c2C1

>  <Label>
group 3

$$$$
>  <Compound>
CCCSc1nc(N[C@@H]2C[C@H]2c2ccc(F)c(F)c2)c2nnn([C@@H]3C[C@H](OCCO)[C@@H](O)[C@H]3O)c2n1

>  <Label>
group 1

$$$$
>  <Compound>
C/C(=N\NC(=O)[C@@H]1C(=O)NC[C@H]1c1ccccc1)c1cccc(Br)c1

>  <Label>
group 1

$$$$
>  <Compound>
Cc1ccccc1N1CCN(S(=O)(=O)C[C@]23CC[C@H](C[C@@H]2NC(=O)[C@@H](N)CCS(C)(=O)=O)C3(C)C)CC1

>  <Label>
group 2

$$$$
>  <Compound>
Clc1ccc(CCCOCCCN2CCCCC2)cc1

>  <Label>
group 3

$$$$
>  <Compound>
COc1cccc([C@H](O)C2CCN(CCc3ccc(F)cc3)CC2)c1OC

>  <Label>
group 2

$$$$
>  <Compound>
CS(=O)(=O)NC[C@H]1CC[C@H](Nc2nc3c(s2)CCSc2ccccc2-3)CC1

>  <Label>
group 2

$$$$
>  <Compound>
Cc1c(F)cccc1NC(=O)Nc1ccc(Cl)c(S(=O)(=O)[C@H]2CCCNC2)c1O

>  <Label>
group 1

$$$$
>  <Compound>
CC1CCN(CC[C@H]2CCCN2S(=O)(=O)c2cccc(O)c2)CC1

>  <Label>
group 3

$$$$
>  <Compound>
O=C(Cc1ccc(Cl)c(Cl)c1)N1CCCC[C@H]1CN1CCCC1

>  <Label>
group 2

$$$$
>  <Compound>
CCCCN1CCC(COC(=O)c2cc(Cl)c(N)c3c2OCCO3)CC1

>  <Label>
group 2

$$$$
>  <Compound>
CCc1nn(CCCN2CCN(c3cccc(Cl)c3)CC2)c(=O)n1CCOc1ccccc1

>  <Label>
group 3

$$$$
>  <Compound>
C[C@H](Cc1cc2c(c(C(N)=O)c1)N(CCCO)CC2)NCCOc1ccccc1OCC(F)(F)F

>  <Label>
group 3

$$$$
>  <Compound>
COc1ccc2[nH]cc(CCNC(C)=O)c2c1

>  <Label>
group 1

$$$$
>  <Compound>
CCc1ccc(OCc2ccccc2C(=O)Nc2ccc3nc(C)cc(N)c3c2)cc1

>  <Label>
group 2

$$$$
>  <Compound>
CC(C)NCC(O)COc1cccc2[nH]ccc12 (stereo unspecified)

>  <Label>
group 2

$$$$
>  <Compound>
Cc1cccc(NC(=O)N[C@@H]2N=C(c3ccccc3)c3ccccc3N(C)C2=O)c1

>  <Label>
group 1

$$$$
>  <Compound>
CCCCCCCCCCCCC/C=C/[C@@H](O)[C@@H](N)COP(=O)(O)O

>  <Label>
group 1

$$$$
>  <Compound>
NCCc1cn(S(=O)(=O)c2c(Cl)nc3sccn23)c2ccccc12

>  <Label>
group 3

$$$$
>  <Compound>
c1ccc(N2CCN(Cc3nc4ccccc4[nH]3)CC2)nc1

>  <Label>
group 2

$$$$
>  <Compound>
CN1C2CCC1CC(OC(c1ccc(F)cc1)c1ccc(F)cc1)C2 (stereo unspecified)

>  <Label>
group 3

$$$$
